Where these numbers come from: the supplement of paper PMC4862054

System: CAL-51
Test: normalised viability (% of control), CellTiter-Blue; higher = more viable cells (about 100 = DMSO control)
Conditions: incubation time: 72 h
Measured normalised viability of individual entries
State the answer as a number, implicitly in %.

Recorded results for 8 compounds are shown here.
1) C[C@]12CC[C@@H]3c4ccc(OC(=O)N(CCCl)CCCl)cc4CC[C@H]3[C@@H]1CC[C@@H]2O [Estramustine] (29.7 nM)    79.1
2) Cc1sc2c(c1C)C(c1ccc(Cl)cc1)=N[C@@H](CC(=O)OC(C)(C)C)c1nnc(C)n1-2 [(+)JQ1] (300 nM)    98.1
3) Cn1cc(C2=Nc3cc(NC(=O)C(N)C4CCCCC4)cc4c3C2=CNNC4=O)cn1 (centres undefined) (300 nM)    93.9
4) C[C@]1(O)C[C@@H](c2nc(-c3ccc4ccc(-c5ccccc5)nc4c3)c3c(N)nccn32)C1 [OSI-906] (300 nM)    91.5
5) COc1cc2c(cc1O)CC[C@@H]1[C@@H]2CC[C@]2(C)[C@@H](O)CC[C@@H]12 [2-methoxyestradiol] (300 nM)    110
6) O=C1CN2Cc3c(ccc(Cl)c3Cl)N=C2N1 [Anagrelide] (300 nM)    77.6
7) CC1=C2C[C@H]3[C@@H](CC=C4C[C@@H](O)CC[C@@]43C)[C@@H]2CC[C@]12O[C@@H]1C[C@H](C)CN[C@H]1[C@H]2C [Cyclopamine] (300 nM)    115
8) CC1(C)CNc2cc(NC(=O)c3cccnc3NCc3ccncc3)ccc21 [Motesanib] (300 nM)    103

# evaluate next
Q) # input compound: Oc1ncnc2[nH]ncc12 [Allopurinol] (300 nM) ; wanted: its normalised viability
A) 93.3

* * *

Tested on: HCC1937
Test: normalised response (% of control), CellTox Green; higher = less cell death (100 = DMSO, 0 = benzethonium chloride kill control)
Conditions: incubation time: 72 h
Listing of recorded normalised response by entry.
Return type: number; implicit unit %.

# count of solved cases: 5
1. CC1(C)CCC(CN2CCN(c3ccc(C(=O)NS(=O)(=O)c4ccc(NCC5CCOCC5)c([N+](=O)[O-])c4)c(Oc4cnc5[nH]ccc5c4)c3)CC2)=C(c2ccc(Cl)cc2)C1 [ABT-199] (10000 nM)    -11.4
2. C[C@]12CC[C@@H]3c4ccc(OC(=O)N(CCCl)CCCl)cc4CC[C@H]3[C@@H]1CC[C@@H]2O [Estramustine] (100 nM)    70.5
3. COc1cc(F)c(F)c(Nc2ccc(I)cc2F)c1NS(=O)(=O)C1(C[C@H](O)CO)CC1 [Refametinib] (1000 nM)    113
4. Nc1nc2[nH]cnc2c(=S)[nH]1 [Thioguanine] (100 nM)    96.7
5. C[C@]12CC[C@@H]3c4ccc(OC(=O)N(CCCl)CCCl)cc4CC[C@H]3[C@@H]1CC[C@@H]2O [Estramustine] (1000 nM)    67

Q) I'd like to know its normalised response. The molecule in question is COc1cc(F)c(F)c(Nc2ccc(I)cc2F)c1NS(=O)(=O)C1(C[C@H](O)CO)CC1 [Refametinib] (100 nM)
A) 92.5

Q) Also check Cn1cc(C2=Nc3cc(NC(=O)C(N)C4CCCCC4)cc4c3C2=CNNC4=O)cn1 (configuration not stated) (10000 nM)
A) 95.9

* * *

Test system: HCC1143
Experiment: normalised viability (% of control), CellTiter-Blue; higher = more viable cells (100 = DMSO, 0 = benzethonium chloride kill control)
Conditions: incubation time: 72 h
recorded_endpoint: normalised viability
A bare number is not enough; add the unit after it.

Illustrative cases are given below, each with its answer.
1. CC1(C)CNc2cc(NC(=O)c3cccnc3NCc3ccncc3)ccc21 [Motesanib] (1 nM)    86.3%
2. Cc1sc2c(c1C)C(c1ccc(Cl)cc1)=N[C@@H](CC(=O)OC(C)(C)C)c1nnc(C)n1-2 [(+)JQ1] (1 nM)    126%

Q) So what's the measured normalised viability for this one? Oc1ncnc2[nH]ncc12 [Allopurinol] (1 nM)
A) 106%

* * *

System: DU-4475
Test: normalised response (% of control), CellTox Green; higher = less cell death (100 = DMSO, 0 = benzethonium chloride kill control)
Conditions: incubation time: 72 h
Attribute: normalised response
A number alone suffices; assume %.

See these solved cases before continuing.
1. CC(=O)N(O)CCCCCNC(=O)CCC(=O)N(O)CCCCCNC(=O)CCC(=O)N(O)CCCCCN [Deferoxamine] (100 nM)    98.1
2. Cc1ccc([N+](=O)[O-])cc1S(=O)(=O)N(C)/N=C/c1cnc2ccc(Br)cn12 [PIK-75] (10000 nM)    74.7
3. COc1cc(F)c(F)c(Nc2ccc(I)cc2F)c1NS(=O)(=O)C1(C[C@H](O)CO)CC1 [Refametinib] (10000 nM)    69.6
4. CC1=C2C[C@H]3[C@@H](CC=C4C[C@@H](O)CC[C@@]43C)[C@@H]2CC[C@]12O[C@@H]1C[C@H](C)CN[C@H]1[C@H]2C [Cyclopamine] (10000 nM)    103
5. O=NN(CCCl)C(=O)NCCCl [Carmustine] (1000 nM)    96.9

Q) Would you mind telling me what normalised response value was observed for CC1=C2C[C@H]3[C@@H](CC=C4C[C@@H](O)CC[C@@]43C)[C@@H]2CC[C@]12O[C@@H]1C[C@H](C)CN[C@H]1[C@H]2C [Cyclopamine] (1000 nM) ?
A) 101

Q) CC[C@@H]1C(=O)OC[C@@H]1Cc1cncn1C [Pilocarpine] (400 nM) ?
A) 95.8

* * *

Test system: HCC1937
Assay: normalised viability (% of control), CellTiter-Blue; higher = more viable cells (about 100 = DMSO control)
Details: 100 nM; incubation time: 72 h
Some molecules, each annotated with its measured normalised viability.
Respond with a number, then the unit of measure.

1) Nc1ncn([C@@H]2O[C@H](CO)[C@@H](O)[C@H]2O)c(=O)n1 [Azacitidine]    98.3%

Q) For HCC1937, provide normalised viability of C[C@]1(O)C[C@@H](c2nc(-c3ccc4ccc(-c5ccccc5)nc4c3)c3c(N)nccn32)C1 [OSI-906] please.
A) 92.5%

Q) Query O=C1CN2Cc3c(ccc(Cl)c3Cl)N=C2N1 [Anagrelide] next
A) 94.9%

Q) Please do the same for CC(C)(C)c1cnc(CSc2cnc(NC(=O)C3CCNCC3)s2)o1 [SNS-032] as well.
A) 53.2%

Q) Also check COc1cc(F)c(F)c(Nc2ccc(I)cc2F)c1NS(=O)(=O)C1(C[C@H](O)CO)CC1 [RDEA119]
A) 87.7%

Q) Same question for Cn1cc(C2=Nc3cc(NC(=O)C(N)C4CCCCC4)cc4c3C2=CNNC4=O)cn1 (stereo unspecified) please.
A) 90.7%

* * *

Test system: HCC1143
Experiment: drug sensitivity score (DSS), CellTiter-Blue viability (DSS (AUC-based score)); higher = stronger viability inhibition; extreme values may be limits of the assay
Settings: incubation time: 72 h
recorded_endpoint: drug sensitivity score
Answer as a number with no unit attached.

1. O=C1CN2Cc3c(ccc(Cl)c3Cl)N=C2N1 [Anagrelide]    0

Q) Entry Cc1sc2c(c1C)C(c1ccc(Cl)cc1)=N[C@@H](CC(=O)OC(C)(C)C)c1nnc(C)n1-2 [(+)JQ1] : reported drug sensitivity score = ?
A) 6.54

Q) Input `CC1=C2C[C@H]3[C@@H](CC=C4C[C@@H](O)CC[C@@]43C)[C@@H]2CC[C@]12O[C@@H]1C[C@H](C)CN[C@H]1[C@H]2C`
A) 0

Q) Queued: `C[C@]12CC[C@@H]3c4ccc(OC(=O)N(CCCl)CCCl)cc4CC[C@H]3[C@@H]1CC[C@@H]2O`
A) 0

Q) Same lookup for `Oc1ncnc2[nH]ncc12` , please.
A) 0

Q) Same question, `COc1cc2c(cc1O)CC[C@@H]1[C@@H]2CC[C@]2(C)[C@@H](O)CC[C@@H]12` this time
A) 4.05

* * *

# normalised response per entry
Tested on: HCC1143
Test: normalised response (% of control), CellTiter-Glo; higher = more viable cells (100 = DMSO, 0 = benzethonium chloride kill control)
Conditions: incubation time: 72 h
Quick note: give the figure in %, leave out the unit.

A selection of reference data follows.
1) O=NN(CCCl)C(=O)NCCCl [Carmustine] (1000 nM)    100
2) CC1=C2C[C@H]3[C@@H](CC=C4C[C@@H](O)CC[C@@]43C)[C@@H]2CC[C@]12O[C@@H]1C[C@H](C)CN[C@H]1[C@H]2C [Cyclopamine] (10 nM)    105
3) COc1cc2c(cc1O)CC[C@@H]1[C@@H]2CC[C@]2(C)[C@@H](O)CC[C@@H]12 [2-methoxyestradiol] (10 nM)    103
4) O=NN(CCCl)C(=O)NCCCl [Carmustine] (1 nM)    97.8

Pending compound:
Q) What does the record list as normalised response for Nc1ncn([C@@H]2O[C@H](CO)[C@@H](O)[C@H]2O)c(=O)n1 [Azacitidine] (1 nM) ?
A) 95.4
